Hello, the source for this data is PubChem BioAssay (NCI), in case you need it.

test system: M14 melanoma; experiment: NCI-60 one-dose screen, 48 h (100 = growth as untreated, 0 = no growth, -100 = all killed); details: 10 µM unless noted
About 83,000 compounds went through this panel and 20% of them were active in at least one assay; those are over-represented in the sample as a whole.
Entries and their growth values follow.
# unit: % | format: bare number

Answered cases to consult:
In [3]: df
Out[3]:
                                   molecule  measured_target  measured_parameter  value_observed
0  O=C(NCCNc1nccc(-c2c(-c3cccc(O)c3)nc3sccn23)n1)Nc1cccc(C(F)(F)F)c1     M14 melanoma              growth           -21.7
1  COc1ccc2c(-c3ccc(F)cc3)c(C#N)c(=NC(C)=O)oc2c1     M14 melanoma              growth            19.8
2  C#CCn1c(-c2cc(OC)c(OC)cc2Br)nc(-c2ccccc2)c1-c1ccccc1     M14 melanoma              growth            16.1
3  COc1cccc(-c2nc3sccn3c2-c2ccnc(NCCNC(=O)c3ccccc3)n2)c1     M14 melanoma              growth            40.1

Let us examine a further case.
Query :: Tell me measured growth for COc1cccc(/C=N/C(=S)NC2(C)C3CCC(C3)C2(C)C)c1O (stereo not drawn) please.
Result :: 64.8

---

system: K-562 leukemia; test: NCI-60 one-dose screen, 48 h (100 = growth as untreated, 0 = no growth, -100 = all killed); conditions: 10 µM unless noted
This is part of a sample that, as a whole, favours compounds with a hit. Of some 83,000 tested, about 20% had one in any assay.
Entries and their growth values follow.
# unit: % | format: bare number

Answered cases to consult:
>>> print(df.to_string())
                                   compound  measured_parameter  value_observed
0  O=C(/C=C/c1ccccc1)Oc1ccc(/C=C/c2cc(OC(=O)/C=C/c3ccccc3)cc(OC(=O)/C=C/c3ccccc3)c2)cc1              growth            94.8
1  NS(=O)(=O)c1ccc(Nc2nc(O)c(/C=C3\C=Nc4ccccc43)s2)cc1              growth             101
2        CCCCCC/C=N/Nc1ccc([N+](=O)[O-])cn1              growth            96.7
3  O=C(O)c1ccc(-n2cc(/C=N/Nc3ccc(Cl)cc3)c(-c3ccc(F)c(F)c3)n2)cc1              growth            7.69
4  NC(CSC(c1ccccc1)(c1ccccc1)c1ccc(F)cc1)C(=O)O (configuration not stated)              growth           -4.92

Query :: Report measured growth on K-562 leukemia; entry: COc1ccc(N)c(S)c1
Result :: 97.4

Query :: Report measured growth on K-562 leukemia; entry: O=C(O)c1ccc2nc(-c3ccc(OCCCCCOc4ccc(-c5nc6ccc(C(=O)O)cc6[nH]5)cc4)cc3)[nH]c2c1
Result :: 77.6

---

Entries and their growth values follow.
system: CCRF-CEM leukemia; assay: NCI-60 one-dose screen, 48 h (100 = growth as untreated, 0 = no growth, -100 = all killed); details: 10 µM unless noted
The panel holds about 83,000 compounds, 20% with a hit somewhere; the sample as a whole holds those more often.
# unit: % | format: bare number

Answered cases to consult:
>>> df
                                   molecule  value_observed
0               COc1ccccc1C(OC(C)=O)OC(C)=O             113
1  CCC1CN2C(=N1)c1ccccc1-c1cc(Cl)ccc12 (configuration not stated)            13.4
2  Cc1cn(C2CC(F)C(CO)O2)c(=O)[nH]c1=O (configuration not stated)            80.7
3  C=C1C(=O)O[C@H]2[C@H]1CC/C(COC(=O)c1cccc3ccccc13)=C\CC[C@@]1(C)O[C@@H]21             -19
4                              Nc1nc(=S)ss1             109
5  COc1ccccc1NC(=O)COc1ccc(/C=C2/Oc3cc4occc4c(OC)c3C2=O)cc1OC            69.9

Query :: Tell me measured growth for COCCNC(C(=O)c1ccccc1)c1ccccc1 (configuration not stated) please.
Result :: 101
